Entries and their NanoBRET Abs IC50 values follow.
# target of assay: T1, B-cat-Halo (beta-catenin HaloTag construct expressed in HEK293 cells) (UniProt P35222 1-781)
# T1 sequence (looked up): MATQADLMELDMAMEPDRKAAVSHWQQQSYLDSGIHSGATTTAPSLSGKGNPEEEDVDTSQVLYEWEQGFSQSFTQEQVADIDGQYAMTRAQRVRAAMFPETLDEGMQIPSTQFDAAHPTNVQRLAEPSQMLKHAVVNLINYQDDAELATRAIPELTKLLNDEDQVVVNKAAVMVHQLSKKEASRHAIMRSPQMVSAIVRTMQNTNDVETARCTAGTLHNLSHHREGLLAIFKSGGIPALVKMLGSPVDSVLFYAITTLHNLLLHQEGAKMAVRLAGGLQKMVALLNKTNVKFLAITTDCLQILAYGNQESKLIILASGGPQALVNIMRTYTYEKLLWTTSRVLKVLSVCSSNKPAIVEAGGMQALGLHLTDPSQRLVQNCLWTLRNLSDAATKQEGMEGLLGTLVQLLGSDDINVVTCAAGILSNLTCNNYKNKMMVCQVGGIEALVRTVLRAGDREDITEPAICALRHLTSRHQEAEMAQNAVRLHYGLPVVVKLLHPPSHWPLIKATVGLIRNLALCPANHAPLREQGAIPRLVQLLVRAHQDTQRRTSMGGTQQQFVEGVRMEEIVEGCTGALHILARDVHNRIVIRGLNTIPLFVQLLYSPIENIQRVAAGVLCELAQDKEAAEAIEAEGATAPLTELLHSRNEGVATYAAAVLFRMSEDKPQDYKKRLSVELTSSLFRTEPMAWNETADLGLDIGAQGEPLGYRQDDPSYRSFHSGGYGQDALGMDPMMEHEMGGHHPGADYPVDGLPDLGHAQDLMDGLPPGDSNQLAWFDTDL
# assay procedure: cell-based or functional assay
Starred links: 1 amine or outer side, 2 acyl side, 3 side chain; linkers in the order of their positions; H or OH if unused. Positions of bridges follow the written chain, without caps; N, C: chain ends. Non-standard residues stand in square brackets, D forms with d. Primed or numbered codes have the meaning given here. PyrS2″ = (S)-3-amino-1-((pent-4-en-1-yloxy)carbonyl)pyrrolidine-3-carboxylic acid (stapling residue), C=CCCCOC(=O)N1CC[C@@](N[*:1])(C(=O)[*:2])C1; B5(4) = 2,2-bis(4-pentenyl)glycine = 2-amino-2-(pent-4-en-1-yl)hept-6-enoic acid (stitching residue), C=CCCCC(CCCC=C)(N[*:1])C(=O)[*:2]; TfeGA = (S)-2-amino-3-((carboxymethyl)(2,2,2-trifluoroethyl)amino)propanoic acid, O=C([C@H](CN(CC(=O)[*:3])CC(F)(F)F)N[*:1])[*:2]; PyrS1 = (S)-3-amino-1-((but-3-en-1-yloxy)carbonyl)pyrrolidine-3-carboxylic acid, C=CCCOC(=O)N1CC[C@@](N[*:1])(C(=O)[*:2])C1; Az = 1-((allyloxy)carbonyl)-3-aminoazetidine-3-carboxylic acid (stapling residue), C=CCOC(=O)N1CC(N[*:1])(C(=O)[*:2])C1; B5(19) = 2-amino-2-(pent-4-en-1-yl)hept-6-enoic acid (bis(4-pentenyl)glycine), C=CCCCC(CCCC=C)(N[*:1])C(=O)[*:2]; (Et)GAbu = (S)-2-amino-4-((carboxymethyl)(ethyl)amino)butanoic acid, CCN(CC[C@H](N[*:1])C(=O)[*:2])CC(=O)[*:3]; Phe(2-Cl) = N[C@@H](Cc1ccccc1Cl)C(=O)O; Bta = N[C@@H](Cc1csc2ccccc12)C(=O)O; αAllylPro = C=CC[C@@]1(C(=O)O)CCCN1; tBuAla = CC(C)(C)C[C@H](N)C(=O)O; 3Thi = N[C@@H](Cc1ccsc1)C(=O)O

binder: Ac-[αAllylPro]D[tBuAla][B5(4)]D[TfeGA]AAFL[PyrS2″][Phe(2-Cl)][Bta]Q-NH2 (staple 1-4, 4-11) [I-1833]
unit text: µM
bound operator: =
NanoBRET Abs IC50: 6.9
//
binder: Ac-[αAllylPro]D[tBuAla][B5(19)]DDAAFL[PyrS1][3Thi][Bta]Q-NH2 (staple 1-4, 4-11; also: staple olefins reduced to CH2-CH2) [I-1822]
unit text: µM
bound operator: >
NanoBRET Abs IC50: 20
//
binder: Ac-[αAllylPro]D[tBuAla][B5(4)]DDAAFL[Az][3Thi][Bta]Q-NH2 (staple 1-4, 4-11) [I-1828]
unit text: µM
bound operator: >
NanoBRET Abs IC50: 20
//
binder: Ac-[αAllylPro]D[tBuAla][B5(4)]D[(Et)GAbu]AAFL[PyrS2″][3Thi][Bta]Q-NH2 (staple 1-4, 4-11) [I-1835]
unit text: µM
bound operator: =
NanoBRET Abs IC50: 31.9

Data origin, for the record: patent US20240116985A1
